Cited source: patent US3954733A

Escherichia coli NIHJ: reported MIC for various compounds.
Respond numerically; units are µg/mL and should not be typed.

>>> assay_result("CCOC(=O)Oc1c(C(=O)N[C@@H](C(=O)N[C@@H]2C(=O)N3[C@@H]2SC(C)(C)[C@@H]3C(=O)O)c2ccc(OC(=O)OCc3ccccc3)cc2)cnc2cccnc12 [Example 5]")
3.13
>>> assay_result("CC1(C)S[C@@H]2[C@H](NC(=O)[C@H](NC(=O)c3nnc4ccccc4c3O)c3ccc(O)cc3)C(=O)N2[C@H]1C(=O)O [Example 8]")
12.5
>>> assay_result("CC1(C)S[C@@H]2[C@H](NC(=O)C(NC(=O)c3cnc4cccnc4c3S)c3cc(Cl)c(O)c(Cl)c3)C(=O)N2[C@H]1C(=O)O (some centres unmarked) [Example 40]")
12.5
>>> assay_result("CC(C)COC(=O)Oc1ccc([C@@H](NC(=O)c2cnc3nc(N(C)C)ncc3c2O)C(=O)N[C@@H]2C(=O)N3[C@@H]2SC(C)(C)[C@@H]3C(=O)O)cc1 [Example 30]")
6.25
>>> assay_result("Cc1ccc2c(O)c(C(=O)N[C@@H](C(=O)N[C@@H]3C(=O)N4[C@@H]3SC(C)(C)[C@@H]4C(=O)O)c3ccc(O)cc3)cnc2n1 [Example 7]")
1.56
>>> assay_result("CC1(C)S[C@@H]2[C@H](NC(=O)[C@H](NC(=O)c3cnc4ccccc4c3O)c3cccc(O)c3)C(=O)N2[C@H]1C(=O)O [Example 13]")
6.25

Field MIC (entry CCOC(=O)Oc1ccc([C@@H](NC(=O)c2cnc3cn[nH]c3c2O)C(=O)N[C@@H]2C(=O)N3[C@@H]2SC(C)(C)[C@@H]3C(=O)O)cc1 [Example 33] ) reads 3.13

Field MIC (entry CC1(C)S[C@@H]2[C@H](NC(=O)[C@H](NC(=O)c3cnc4cccnc4c3S)c3ccc(O)cc3)C(=O)N2[C@H]1C(=O)O [Example 43] ) reads 1.56

Field MIC (entry COc1ccc2ncc(C(=O)N[C@@H](C(=O)N[C@@H]3C(=O)N4[C@@H]3SC(C)(C)[C@@H]4C(=O)O)c3ccc(O)cc3)c(O)c2n1 [Example 19] ) reads 3.13

Field MIC (entry CC1(C)S[C@@H]2[C@H](NC(=O)[C@H](NC(=O)c3cnc4cc(C(F)(F)F)ccc4c3O)c3ccc(O)cc3)C(=O)N2[C@H]1C(=O)O [Example 11] ) reads 12.5

Field MIC (entry CCOC(=O)Oc1ccc([C@@H](NC(=O)c2cnc3cccnc3c2OC(=O)OCC)C(=O)N[C@@H]2C(=O)N3[C@@H]2SC(C)(C)[C@@H]3C(=O)O)cc1 [Example 37] ) reads 1.56
